What pIC50 was measured for each of the following?
# Test system: HCV replicon 1A
# assay: microbe, parasite or virus in culture
# Type: cell-based, Hepatitis C virus (HCV)
# experimentalConditions: HCV replicon 1A; Replicon Assay A
Please keep in mind that pIC50 is minus log10 of the molar concentration; only the number is needed.

Form field pIC50, entry COC(=O)NC(C(=O)N1CCC[C@H]1c1ncc(-c2ccc3c(c2)cc2n3C(c3ccc(CC4CC4)s3)Oc3cc(-c4cnc([C@@H]5CCCN5C(=O)[C@@H](NC(=O)OC)C(C)C)[nH]4)cc(F)c3-2)[nH]1)C1CCOC(C)(C)C1 (single isomer, unassigned) [Compound 407] : 11.77

Form field pIC50, entry COC(=O)N[C@H](C(=O)N1CCC[C@H]1c1ncc(-c2cc(F)c3c(c2)OC(c2cc4c(s2)CCC4)n2c-3cc3cc(-c4cnc([C@@H]5CCCN5C(=O)[C@@H](NC(=O)OC)C5CCOCC5)[nH]4)ccc32)[nH]1)C(C)C (single isomer, unassigned) [Compound 622] : 11.62

Form field pIC50, entry COC(=O)N[C@H](C(=O)N1C[C@H](F)C[C@H]1c1cnc(-c2ccc3c(c2)cc2n3C(c3cc4ccccc4s3)Oc3cc(-c4cnc([C@@H]5C[C@@H](F)CN5C(=O)[C@@H](NC(=O)OC)C(C)C)[nH]4)ccc3-2)[nH]1)C(C)C (single isomer, unassigned) [Compound 806] : 10.39

Form field pIC50, entry COC(=O)NC(C(=O)N1CCC[C@H]1c1ncc(-c2ccc3c(c2)cc2n3C(c3ccc(C(F)(F)F)s3)Oc3cc(-c4cnc([C@@H]5CCCN5C(=O)[C@@H](NC(=O)OC)C(C)C)[nH]4)cc(F)c3-2)[nH]1)C1C[C@@H](C)O[C@@H](C)C1 (single isomer, unassigned) : 11.70

Form field pIC50, entry COC(=O)N[C@H](C(=O)N1CCC[C@H]1c1ncc(-c2cc(F)c3c(c2)OC(c2ccc(CC(C)(C)OC)s2)n2c-3cc3cc(-c4cnc([C@@H]5CCCN5C(=O)[C@@H](NC(=O)OC)C(C)C)[nH]4)ccc32)[nH]1)C(C)C (single isomer, unassigned) [Compound 843] : 11.66

Form field pIC50, entry COC(=O)NC(C(=O)N1CCCC1c1ncc(-c2cc(F)c3c(c2)OC(c2ccc(C4CC4)s2)n2c-3cc3cc(-c4cnc(C5CC6CC6N5C(=O)C(NC(=O)OC)C5CCOCC5)[nH]4)ccc32)[nH]1)C(C)C (mixture of isomers) : 11.89

Form field pIC50, entry COC(=O)N[C@H](C(=O)N1CCC[C@H]1c1ncc(-c2cc(F)c3c(c2)OC(c2ccc(CC(C)(C)OC)s2)n2c-3cc3cc(-c4cnc([C@@H]5CCCN5C(=O)[C@@H](NC(=O)OC)C(C)C)[nH]4)ccc32)[nH]1)C(C)C (single isomer, unassigned) [Compound 844] : 11.66

Form field pIC50, entry COC(=O)N[C@H](C(=O)N1CCC[C@H]1c1ncc(-c2ccc3c(c2)OC(c2ccc(C4CC4)s2)n2c-3c(F)c3cc(-c4cnc([C@@H]5C[C@H]6C[C@H]6N5C(=O)[C@@H](NC(=O)OC)C(C)C)[nH]4)ccc32)[nH]1)C(C)C (single isomer, unassigned) [Compound 613] : 11.60

* * *

# Test system: HCV replicon 2B
# assay: microbe, parasite or virus in culture
# Type: cell-based, Hepatitis C virus (HCV)
# experimentalConditions: HCV replicon 2B; Replicon Assay A; read-out: 2B IC50
Mark YES for IC50 under 0.3 nM, NO if at or over.

Lab note: confirm whether the reported IC50 for this molecule is below 0.3 nM, equality not counting. molecule: COC(=O)N[C@H](C(=O)N1CCC[C@H]1c1ncc(-c2cc(F)c3c(c2)OC(c2ccc(C4CC4)s2)n2c-3cc3cc(-c4cnc([C@@H]5C[C@H]6C[C@H]6N5C(=O)[C@@H](NC(=O)OC)C5CCOCC5)[nH]4)ccc32)[nH]1)C(C)C (single isomer, unassigned)
YES

Lab note: confirm whether the reported IC50 for this molecule is below 0.3 nM, equality not counting. molecule: COC(=O)N[C@H](C(=O)N1CCC[C@H]1c1ncc(-c2cc(F)c3c(c2)OC(c2ccc(C4(C)CC4)s2)n2c-3cc3cc(-c4cnc([C@@H]5CCCN5C(=O)[C@@H](NC(=O)OC)C(C)C)[nH]4)ccc32)[nH]1)C(C)C (single isomer, unassigned) [Compound 836]
YES

Lab note: confirm whether the reported IC50 for this molecule is below 0.3 nM, equality not counting. molecule: COC(=O)N[C@H](C(=O)N1CCC[C@H]1c1ncc(-c2cc(F)c3c(c2)OC(c2ccc(CC(C)(C)OC)s2)n2c-3cc3cc(-c4cnc([C@@H]5CCCN5C(=O)[C@@H](NC(=O)OC)C(C)C)[nH]4)ccc32)[nH]1)C(C)C (single isomer, unassigned)
YES

Lab note: confirm whether the reported IC50 for this molecule is below 0.3 nM, equality not counting. molecule: COC(=O)N[C@H](C(=O)N1CCC[C@H]1c1ncc(-c2cc(F)c3c(c2)OC(c2ccc(C4(C)CC4)s2)n2c-3cc3cc(-c4cnc([C@@H]5CCCN5C(=O)[C@@H](NC(=O)OC)C(C)C)[nH]4)ccc32)[nH]1)C(C)C (single isomer, unassigned) [Compound 835]
NO

Lab note: confirm whether the reported IC50 for this molecule is below 0.3 nM, equality not counting. molecule: COC(=O)NC(C(=O)N1CCCC1c1ncc(-c2cc(F)c3c(c2)OC(c2cc4c(s2)CC2(C4)OCCO2)n2c-3cc3cc(-c4cnc(C5CCCN5C(=O)C(NC(=O)OC)C(C)C)[nH]4)ccc32)[nH]1)C(C)C (mixture of isomers)
NO

Lab note: confirm whether the reported IC50 for this molecule is below 0.3 nM, equality not counting. molecule: COC(=O)NC(C(=O)N1CCCC1c1ncc(-c2cc(F)c3c(c2)OC(c2ccc(C4CC4)s2)n2c-3cc3cc(-c4cnc(C5CCCN5C(=O)C(NC(=O)OC)C5CCOC(C)C5)[nH]4)ccc32)[nH]1)C(C)C (mixture of isomers)
YES
